# assay notes: amyloid nucleation score (Sup35N fusion, yeast selection) (log enrichment); library NNK1; higher = more nucleation; inactive = no reads after selection;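 further: zero at mode of non-aggregating sequences after 7 days selection at 30°C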
Output: class label from amyloid nucleation score. Mapping: bottom range = under -0.08, center range = from -0.08 up to 0.5, top range = 0.5 and over

>>> group("QGMQICHQKHGAWSGYNGRE")
"bottom range"
>>> group("GIAVHGMLDRMVSRRGLRAW")
"center range"
>>> group("VSVFDVWRMQCGNSLVKEGG")
"bottom range"
>>> group("YLSCLNFRLGSMFMRSL")
"top range"
>>> group("ERLHMLLAKCIHVGETRHLN")
"center range"
>>> group("DWFWWKIVGWVRNSNMRSYS")
"top range"
>>> group("ADARVQGLSRLWGSGFNRLP")
"top range"
>>> group("LYYDSRASFPCISLEIERYV")
"bottom range"
>>> group("VGCLMWYALCGLE")
"center range"

---

# assay notes: amyloid nucleation score (Sup35N fusion, yeast selection) (log enrichment); library NNK1; higher = more nucleation; inactive = no reads after selection
property: amyloid nucleation score

>>> recorded_result("CHTTKNYVYCVCMQFVTHQ")
6.72
>>> recorded_result("NSYWLRCILPM")
-0.065
>>> recorded_result("LDRSTSSLIMSSCLMYRESS")
1.33
>>> recorded_result("FNFNFRRFYHVRGFDSRSHL")
0.473
>>> recorded_result("PFSYLMDLTIYVGKSLQSNE")
0.119
>>> recorded_result("FIFPAHCSLRSIDFSQGYIR")
-0.321
>>> recorded_result("RMIKNYSIS")
0.89
>>> recorded_result("SRQRSYRDWVATFTF")
-0.339
>>> recorded_result("FYIVIDYFRNCAG")
0.005
>>> recorded_result("TNVMLPNGVGFLAPAVHCES")
1.04
>>> recorded_result("VSTNKRVVGMRRFGTYTRYV")
-0.309
>>> recorded_result("LLDRRVGKLGLDCMLLDLCQ")
0.752
>>> recorded_result("GRRVFGRYVQINNGPISRFF")
0.266
>>> recorded_result("SRLSQDPRTSSAIMSWLRYS")
0.886
>>> recorded_result("WGNTRYGTAASVCVTEVKGS")
0.048
>>> recorded_result("ITGFKFS")
0.698
>>> recorded_result("YGSLFED")
0.108
>>> recorded_result("EEGDAAGVVILNMQRSYG")
-0.427
>>> recorded_result("TASNDYLDIDPSMDQSRWCG")
0.518

---

# assay notes: amyloid nucleation score (Sup35N fusion, yeast selection) (log enrichment); library NNK1; higher = more nucleation; inactive = no reads after selection
# label = Yes if amyloid nucleation score >= -0.009 else No

>>> group("GLIQYPGFIASMYPSDNTSC")
"Yes"
>>> group("EYGNGSIKPVGRHWLEGYLH")
"No"
>>> group("MVHCRQI")
"Yes"
>>> group("KAFRMLGGFNSYRNFNIILK")
"Yes"
>>> group("AARRLNELSSELKWMCSATD")
"No"
>>> group("ETALVVLTRVTEGCGRGQKT")
"Yes"
>>> group("EVRRFMTPGENESSREVAYF")
"No"
>>> group("LLKWLVDAW")
"Yes"
>>> group("GAFEDEVVLLTHTL")
"No"
>>> group("ACARTTDIFV")
"No"
>>> group("LGSDDLLKVSFFFVSLGS")
"No"
>>> group("DLVSVHHVNRLRCWSGCLCE")
"No"
>>> group("MCASASTSKMLVWVWTPYFG")
"Yes"
>>> group("GLKMFKMCLCNMALDIF")
"Yes"
